Taken from ChEMBL document CHEMBL1154084.

- protocol text: Ratio of EC90 for Mycobacterium tuberculosis Erdman to MIC for Mycobacterium tuberculosis H37Rv
- Type: functional
Please enter True where Ratio is greater than or equal to 0.2, and False where it is lower.

Would you say CC1C/C(=N/NC(=O)c2ccncc2)CC(C)(C)C1 (stereo unspecified) shows Ratio at minimum 0.2?
True

Would you say CCOC(=O)C/C(Cc1ccccc1)=N/NC(=O)c1ccncc1 shows Ratio at minimum 0.2?
False

Would you say CCCCC/C(=N\NC(=O)c1ccncc1)c1ccccc1 shows Ratio at minimum 0.2?
False

Would you say CC/C=C/C=N/NC(=O)c1ccncc1 shows Ratio at minimum 0.2?
True

Would you say O=C(N/N=C/C=C(c1ccccc1)c1ccccc1)c1ccncc1 shows Ratio at minimum 0.2?
True
